The entries below come with measured metabolised at 1.5 h values attached.
assayProtocol: Metabolic stability in Wistar rat brush border membrane vesicles assessed as drug degradation up to 90 mins by HPLC
Type: ADME, cell membranes
conditionInfo: read-out: Activity
Numbered stars: 1 amine (or outer) side, 2 acyl side, 3 side chain; on linkers, the order of the positions; unused ones are H or OH. Bridge positions count the residues as written; N and C are the ends. Square brackets hold non-standard residues; d marks the D form. Peptide text beside a SMILES is read from it. N(2-Aminoethyl)Gly = O=C(CN(CCN[*:3])[*:1])[*:2]; Adipoyl = O=C(CCCCC(=O)[*:2])[*:1]; Suc = O=C(CCC(=O)[*:2])[*:1]; Nphe = O=C(O)CNCc1ccccc1
Write the value in % as a bare number.

Examples from the recorded data:
{"columns": ["compound", "unitText", "numericReadout"],
 "data": [
  ["CC(=O)NCC(=O)N(CC(=O)N(CC(=O)N[C@@H](CCCNC(=N)N)C(=O)N[C@@H](Cc1c[nH]c2ccccc12)C(=O)NCC(N)=O)Cc1ccccc1)Cc1ccccc1 (HELM PEPTIDE1{[ac].G.[O=C(CN(Cc1ccccc1)[*:1])[*:2]].[O=C(CN(Cc1ccccc1)[*:1])[*:2]].R.W.G.[am]}$$$$V2.0)", "%", 20],
  ["NC(=O)CN1CCNC(=O)CCCCC(=O)N[C@@H](Cc2ccccc2)C(=O)N(Cc2ccccc2)CC(=O)N[C@@H](CCCN=C(N)N)C(=O)N[C@@H](Cc2c[nH]c3ccccc23)C1=O (F[Nphe]RW[N(2-Aminoethyl)Gly]-NH2; linker N-5 via Adipoyl)", "%", 5]
]}

Now, please, on to the next compound.
Asked: Which metabolised at 1.5 h is listed for N=C(N)NCCC[C@@H]1NC(=O)CN(Cc2ccccc2)C(=O)CN(Cc2ccccc2)C(=O)CCC(=O)NCCN(CC(N)=O)C(=O)[C@H](Cc2c[nH]c3ccccc23)NC1=O ([Nphe][Nphe]RW[N(2-Aminoethyl)Gly]-NH2; linker N-5 via Suc) ?
Given back: 5

Source listed as ChEMBL document CHEMBL1159118.
